# system: “DKT”-IMPDH-II (Homo sapiens, UniProt P12268, DEL111-240/K241D/Q243T)
# Construct: The full-length, human, type II impdh cDNAs were used as templates
# Sequence (P12268 with tags, fused parts or gaps DEL111-240/K241D/Q243T): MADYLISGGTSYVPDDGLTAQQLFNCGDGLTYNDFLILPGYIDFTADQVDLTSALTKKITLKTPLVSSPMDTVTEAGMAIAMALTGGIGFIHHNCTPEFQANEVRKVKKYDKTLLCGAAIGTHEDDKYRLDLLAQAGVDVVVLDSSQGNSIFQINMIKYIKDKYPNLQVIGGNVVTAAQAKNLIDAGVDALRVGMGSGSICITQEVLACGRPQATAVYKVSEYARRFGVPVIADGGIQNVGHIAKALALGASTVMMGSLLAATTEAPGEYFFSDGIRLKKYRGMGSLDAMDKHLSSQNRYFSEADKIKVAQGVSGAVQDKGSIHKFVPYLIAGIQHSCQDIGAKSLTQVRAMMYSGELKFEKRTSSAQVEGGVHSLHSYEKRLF
# test-name: Steady state enzyme kinetics: inhibition of IMPDH-DKT by XMP and MPA
# assay-context: buffer D, 50 nM protein
assay-metric: Ki (µM)
Field: numeric (µM). Do not append units.

# Ki (molecule: O=c1[nH]c(=O)c2ncn([C@@H]3O[C@H](COP(=O)(O)O)[C@@H](O)[C@H]3O)c2[nH]1 [XMP, xanthosine-5′-monophosphate] ) is 67
